T/C by entry:
tested on: L1210 leukemia ip in BDF1 mice, survival T/C; test: NCI In Vivo Anticancer Drug Screen. Data for tumor model L1210 Leukemia (intraperitoneal) in B6D2F1 (BDF1) mice; conditions: endpoint: mean survival time; dose: 100.0 mg/kg/injection; schedule: Q04DX003 (ip); vehicle: saline with Tween-80; higher = longer survival
Inconclusive results and toxic doses are left out.
Experimental Readout: T/C

1. Clc1ccc(Oc2ccc(N3C=Nc4ccc(Oc5ccc(Cl)cc5)cc4C3)cc2)cc1
97 % of control
2. Cc1ccccc1NC=O
87 % of control
3. COc1ccc(NC(=O)CC(C)=O)cc1
94 % of control
4. O=Cc1ccc(OCCBr)cc1
98 % of control
5. O=C(O)CCCCCCCCCCCCCCCO
96 % of control
6. CCCN(CCC)CCCCCO
94 % of control
7. Cc1cc2c(cc1[N+](=O)[O-])OCCO2
93 % of control
8. O=C(O)c1cc(C(=O)O)cc([N+](=O)[O-])c1
95 % of control
9. Cc1ccc(C(=O)/C=C/c2ccccc2O)cc1
105 % of control
10. COc1ccc(N2C(=O)CCC2=O)cc1
106 % of control
11. NC(CC(=O)O)c1nn[nH]n1 (centres undefined)
105 % of control
12. O=C(NCCCl)Nc1cccc(C(F)(F)F)c1
104 % of control
13. C=CCN(CC=C)C(=O)C(C)O (centres undefined)
103 % of control
14. Cc1nc(N)sc1S(=O)(=O)F
89 % of control
